Data provenance is patent US10550166B2.

Readings of relative affinity DR7 for the listed sequences
# SYSTEM: HLA-DR7 (DRB1*07:01) (Homo sapiens, UniProt P01903+P01911, A100R/A102G/A103Q/D57E/D86V/E43K/F76Y/K127E/L162R/M171V/P40G/Q125H/Q99D/R33Q/R42Y/R54Q/S133A/S66F/T210M/V115G/Y107V/Y59L/Y89S)
# EXPERIMENTAL DETAILS: competitive binding assay to purified class II HLA molecule, ELISA read-out
# COND: IC50 of the peptide/IC50 of the reference peptide YKL; <100 = ligand, <20 = strong affinity

# example entries with known answers
ORDERED RESIDUES	ASSAY METRIC	READOUT VALUE
KKLPKPLEKVPMLVP [Peptide 77-91]	relative affinity DR7	>1 036
LAVNDVDAEDGADPN [Peptide 151-165]	relative affinity DR7	>1 036
EPILVDTASPSPMET [Peptide 118-132]	relative affinity DR7	>1036
DRFMQNNCVPKKMLQ [Peptide 231-245]	relative affinity DR7	>1 036
KNVVNVNQGITKHMT [Peptide 385-399]	relative affinity DR7	>1 036

Query: Would you kindly share the measured relative affinity DR7 for GAFCLALKILDNGEW [Peptide 347-361] ?
Result: >1 036

Query: Would you kindly share the measured relative affinity DR7 for PGLRPRTALGDIGNK [Peptide 37-51] ?
Result: >1 036

Query: Would you kindly share the measured relative affinity DR7 for EPVPEPEPEPEPEPV [Peptide 96-110] ?
Result: >1 036

Query: Would you kindly share the measured relative affinity DR7 for SKIGEVDVEQHTLAK [Peptide 310-324] ?
Result: >1 036

Query: Would you kindly share the measured relative affinity DR7 for AKISTLPQLNSALVQ [Peptide 410-424] ?
Result: >1036

Query: Would you kindly share the measured relative affinity DR7 for KRVPTAPAATSKPGL [Peptide 25-39] ?
Result: >1036

Query: Would you kindly share the measured relative affinity DR7 for SDVILAVNDVDAEDG [Peptide 147-161] ?
Result: >1 036

Query: Would you kindly share the measured relative affinity DR7 for EDLCQAFSDVILAVN [Peptide 140-154] ?
Result: >1 036
